# Test system: HepG2 cells
# method-description: Cell proliferation assay (MTT), HepG2
# Format: cell-based
# run-conditions: Homo sapiens, HepG2, Table 1, cell proliferation inhibition; read-out: IC50 (μM) HepG2
Note to self: IC50 under 8 µM means 1 (yes), ties and anything higher get 0 (no).

- Cc1ccc(S(=O)(=O)NC2=C(C#N)C(c3ccc(Br)cc3F)c3c(C)nn(-c4ccccc4)c3O2)cc1 (stereo not shown) [4h]: 0 (no)
- Cc1ccc(S(=O)(=O)NC2=C(C#N)C(c3cccc(Cl)c3)c3c(C)nn(-c4ccccc4)c3O2)cc1 (stereo not shown) [4c]: 1 (yes)
- Cc1ccc(S(=O)(=O)NC2=C(C#N)C(c3ccsc3)c3c(C)nn(-c4ccccc4Cl)c3O2)cc1 (stereo not shown) [4v]: 0 (no)
- Cc1ccc(S(=O)(=O)NC2=C(C#N)C(c3ccco3)c3c(C)nn(-c4ccccc4Cl)c3O2)cc1 (stereo not shown) [4s]: 0 (no)
- COc1cccc(C2C(C#N)=C(NS(=O)(=O)c3ccccc3[N+](=O)[O-])Oc3c2c(C)nn3-c2ccccc2Cl)c1 (stereo not shown) [4z]: 0 (no)
- Cc1ccc(S(=O)(=O)NC2=C(C#N)C(c3cccnc3)c3c(C)nn(-c4ccccc4)c3O2)cc1 (stereo not shown) [4k]: 1 (yes)
- COc1cccc(C2C(C#N)=C(NS(=O)(=O)c3cccc([N+](=O)[O-])c3)Oc3c2c(C)nn3-c2ccccc2Cl)c1 (stereo not shown) [4aa]: 0 (no)
- Cc1ccc(S(=O)(=O)NC2=C(C#N)C(c3ccc(Br)cc3)c3c(C)nn(-c4ccccc4)c3O2)cc1 (stereo not shown) [4d]: 0 (no)
- COc1ccc(S(=O)(=O)NC2=C(C#N)C(c3cccc(OC)c3)c3c(C)nn(-c4ccccc4Cl)c3O2)cc1 (stereo not shown) [4y]: 0 (no)
- COc1cccc(C2C(C#N)=C(NS(=O)(=O)c3ccc([N+](=O)[O-])cc3)Oc3c2c(C)nn3-c2ccccc2Cl)c1 (stereo not shown) [4ab]: 0 (no)
- Cc1ccc(S(=O)(=O)NC2=C(C#N)C(c3ccc(F)cc3)c3c(C)nn(-c4ccccc4)c3O2)cc1 (stereo not shown) [4e]: 0 (no)
- Cc1ccc(S(=O)(=O)NC2=C(C#N)C(c3ccco3)c3c(C)nn(-c4ccccc4)c3O2)cc1 (stereo not shown) [4j]: 0 (no)
- COc1cccc(C2C(C#N)=C(NS(=O)(=O)c3ccccc3)Oc3c2c(C)nn3-c2ccccc2Cl)c1 (stereo not shown) [4x]: 0 (no)
- Cc1ccc(S(=O)(=O)NC2=C(C#N)C(c3cccnc3)c3c(C)nn(-c4ccccc4Cl)c3O2)cc1 (stereo not shown) [4t]: 0 (no)
- Cc1nn(-c2ccccc2)c2c1C(c1ccc(C(F)(F)F)cc1)C(C#N)=C(NS(=O)(=O)c1ccc(F)cc1F)O2 (stereo not shown) [4r]: 1 (yes)
- Cc1ccc(S(=O)(=O)NC2=C(C#N)C(c3ccc(C(F)(F)F)cc3)c3c(C)nn(-c4ccccc4)c3O2)cc1 (stereo not shown) [4n]: 0 (no)
